- Tested on: DU-145 prostate
- protocol.summary: NCI-60 one-dose screen, 48 h (100 = growth as untreated, 0 = no growth, -100 = all killed)
- recorded.conditions: 10 µM unless noted
About 83,000 compounds went through this panel and 20% of them were active in at least one assay; those are over-represented in the sample as a whole.
Response key: Criterion met means growth >= 70%; Criterion not met means growth < 70%.

INSERT INTO results (entry_smiles, assigned_label) VALUES
  ('O=c1[nH]nc(-c2ccc(Cl)cc2)cc1Cc1ccccc1', 'Criterion met'),
  ('Cl.[Pt].[c-]1ccccc1-c1ccccn1.c1ccc(P(c2ccccc2)C([PH+](c2ccccc2)c2ccccc2)[PH+](c2ccccc2)c2ccccc2)cc1', 'Criterion not met'),
  ('CCCCN(CCCC)CCCn1c(=O)c2sc3ncccc3c2n2nnc(-c3ccccc3)c12', 'Criterion met');

Lab note: next compound to report on.
Check this compound for growth at or above 70%: `C[C@]12CCC(=O)C[C@H]1CC[C@@H]1[C@@H]2CC[C@@]2(C)[C@H]1CC[C@]2(O)C(=O)CO`
Criterion met
